absorbance 450 nm minus 540 nm values, listed per item
- experimental.target: T1, peptide EISQEVRAAVFPSY (SEQ ID NO:78), N-terminally biotinylated (human)
- T1 peptide: Biotin-EISQEVRAAVFPSY
- assay.comment: ELISA, biotin-peptide on neutravidin plate, antibody 1 ug/ml
Ends that are not written are not given here. * marks the point of attachment. Biotin = O=C1N[C@H]2[C@H](CS[C@H]2CCCCC(=O)*)N1
Provide the reading as a plain figure in absorbance.

Study these solved cases before continuing.
anti-lactadherin antibody 215A9 (antibody, IgG1, V domains shown, also called 2154A9; hybridoma 215A9) VH: QVSLKESGPGILQSSQTLSLTCSFSGFSLSTSGMGVSWIRQPSGKGLEWLAHIYWNDDKRYNPSLKSRLTISKDTSRDQVFLKITSVDTADTATYFCARRPRFYRDYDEGIDFWGQGTTLTVSS VL: QAVVTQESALTTSPGETVTLTCRSSTGAVTTNNYANWVQEKPDHLFTGLIGGTNNRTPGVPARFSGSLIGDKAALTITGAQTEDEAIYFCALWYSNLWVFGGGTKLTVLG = 0.02
anti-lactadherin antibody 311A7 (antibody, IgG1, V domains shown, also called murine 311A7; hybridoma 311A7) VH: EFQLQQSGPELVKPGASVRISCKASGYSFTDYNMNWVKQSDGKTLEWIGVINPDYGTTNNNQRFRGKATLTLDLSSSTAYMQLNSLTSEDSAVYYCARGGDYGAGYALDYWGQGTSVTVSS VL: QIVLTQSPAIMSASPGEKVTITCSASSSVSYMYWFQQKPGTSPKLWIYSTSNLASGVPARFSGSGSGTSYSLTISRMEAEDAATYYCQQRSSYPRTFGGGTKLEIKR = 0.02
huMc3 antibody (antibody, V domains shown) VH: EVQLVQSGAEVKKPGASVKVSCKASGYSFTGYTMHWVKQSPGMNLEWIGLINPYNGGTVYNQKFQDKATLTVDKSTSTAYMELSSLRSEDTAVYFCARRWRYTMDYWGQGTLVTVSS VL: DIVMTQSPDSLAVSLGERATITCKASQDVSIGVAWYQQKPGQSPKLLIYSASSRYTGVPDRFSGSGSGTDFTLTISSLQAEDVAVYYCQQHYTSPFTFGSGTKVEIK = 0.06
anti-lactadherin antibody 399A12 (antibody, V domains shown, Murine monoclonal, kappa light chain; Variable regions identical to those of 416H9; also called hybridoma 399A12; LMBP 9491CB) VH: QVTLKESGPGVLQSSQTLSLTCSFSGFSLSTSGLGVIWIRQPSGAGLEWLAQIYWDDNKRYNPSLKSRLTISKDTSRNQVFLKITPVDTADTATYYCARRTFYDYDEGFYAMDYWGQGTSVTVSS VL: DIQMTQTTSSLSASLGDRVTITCRASQDISNYLNWYQQKPDGTIKLLIYYASRLHSGVPSRFSGSGSGTDYSLTISNLEQEDIATYFCQQGNTLPLTFGAGTKLELKR = 0.02

// Input: anti-lactadherin antibody 416H9 (antibody, IgG1, V domains shown, also called hybridoma 416H9; LMBP 9492CB) VH: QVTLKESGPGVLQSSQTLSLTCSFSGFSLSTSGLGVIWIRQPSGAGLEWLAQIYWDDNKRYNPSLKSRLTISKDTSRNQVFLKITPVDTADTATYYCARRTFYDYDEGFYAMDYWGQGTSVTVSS VL: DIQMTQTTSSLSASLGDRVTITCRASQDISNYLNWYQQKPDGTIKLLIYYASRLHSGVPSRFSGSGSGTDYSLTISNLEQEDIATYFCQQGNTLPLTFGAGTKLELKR . Output its absorbance 450 nm minus 540 nm only.
0.02

// Input: anti-lactadherin antibody 346B6 (antibody, IgG1, V domains shown, VH identical to that of 311A7; also called hybridoma 346B6; LMBP 9490CB) VH: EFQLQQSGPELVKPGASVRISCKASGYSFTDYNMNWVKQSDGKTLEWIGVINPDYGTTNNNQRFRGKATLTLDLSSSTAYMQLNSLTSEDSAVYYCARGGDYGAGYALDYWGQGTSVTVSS VL: QIVLTQSPAIMSASPGEKVTMTCSASSSVSYMYWYQQKPGSSPRLLIYDTSNLASGVPVRFSGSGSGTSYSLTISRMEAEDAATYYCQQWSSYPPTFGAGTKLELKR . Output its absorbance 450 nm minus 540 nm only.
0.02
